I'd be grateful if you could share measured PBM binding z-score for these entries.
Tested on: LXRb:RXRa (NR concentration 270 nM, RXRa partner concentration 90 nM)
Assay: PBM binding z-score (relative to random genomic background probes); higher = stronger binding; sequences stand for … in GC…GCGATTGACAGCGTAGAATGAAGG
One number for each entry.

primary.sequence | test.result
GCTGCTAGGTCAACTGATGGTCATCTAAAGCTCG | 2.18

Dear colleague, could you send me PBM binding z-score for each of the items below? Thanks.
1. TAGCCTAGGTCATGCGGGCCAATATAGTGTCGGC
2. TACCCTAGGTCATTCAGGGGCCAGTATAGAAAGC

1. 1.9
2. 4.5

# return PBM binding z-score for each item in the list
1. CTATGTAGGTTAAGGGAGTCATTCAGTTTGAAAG
2. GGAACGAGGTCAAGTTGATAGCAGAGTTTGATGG
3. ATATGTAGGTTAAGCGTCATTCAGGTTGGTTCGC

1: 0.642; 2: 5.3; 3: 0.883

---

Test system: PPARg DBDmut:RXRa IVT, anti-PPARg (DBD mutation: PPARg1 K132A/R137A, NR concentration 270 nM, RXRa partner concentration 90 nM)
Experiment: PBM binding z-score (relative to random genomic background probes); higher = stronger binding; sequences stand for … in GC…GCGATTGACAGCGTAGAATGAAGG
reported.property: PBM binding z-score
Numbers only.

primary.sequence | test.result
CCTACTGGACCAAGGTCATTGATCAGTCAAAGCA | 0.0744
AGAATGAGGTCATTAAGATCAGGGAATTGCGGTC | 2.24
GATACAGGGTCAGCTACAGGCCAGAGTATGGAAA | 0.112
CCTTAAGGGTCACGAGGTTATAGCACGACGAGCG | 1.74
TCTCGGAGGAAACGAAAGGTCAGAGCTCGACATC | -0.0511

Form field: reported PBM binding z-score of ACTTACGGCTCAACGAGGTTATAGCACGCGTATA
0.327

---

System: RARb:RXRa (NR concentration 270 nM, RXRa partner concentration 90 nM)
Test: PBM binding z-score (relative to random genomic background probes); higher = stronger binding; sequences stand for … in GC…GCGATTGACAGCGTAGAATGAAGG
For each record, write down the corresponding PBM binding z-score.
Answers are plain numbers.

Sample records with PBM binding z-score:
primary.sequence | measurement.target | PBM binding z-score
CCTAGTGGGCCAAGGTCATTGATCAGTCAAAGCA | RARb:RXRa (NR concentration 270 nM, RXRa partner concentration 90 nM) | 3.36
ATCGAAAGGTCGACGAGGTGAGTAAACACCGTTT | RARb:RXRa (NR concentration 270 nM, RXRa partner concentration 90 nM) | 3.85
AATACAGGGTCATCGTACGCCAGAGTACGCACAG | RARb:RXRa (NR concentration 270 nM, RXRa partner concentration 90 nM) | 4.45
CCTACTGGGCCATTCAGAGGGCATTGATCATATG | RARb:RXRa (NR concentration 270 nM, RXRa partner concentration 90 nM) | 1.09
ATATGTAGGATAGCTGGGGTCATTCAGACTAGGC | RARb:RXRa (NR concentration 270 nM, RXRa partner concentration 90 nM) | 2.54

Hello, I would appreciate it if you could give PBM binding z-score for each entry below.
1. CCGAGTAGGTTACTAGGGGGCATTCAGTGCGAAT
2. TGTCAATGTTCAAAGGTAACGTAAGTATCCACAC
3. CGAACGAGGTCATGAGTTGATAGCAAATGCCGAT

1. 1.92
2. 1.09
3. 5.23

Would you mind listing PBM binding z-score for each of the following sequences?
1. TAGCCTAGGTCATTCAGGGGCCACTATAGAAAGC
2. CACACTAGGTCACAGAGGTCAAAGTCCGTGCGTA
3. TCGTGTAGGTTACGGGGGCATTCAGGGATGAAGA
4. ACTTACGGGTCTACGAGGTTATAGCACGCGTATA
5. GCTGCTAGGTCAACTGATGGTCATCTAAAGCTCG

4.11
5.36
3.34
0.688
4.32

---

Test system: FXR:RXRa (NR concentration 270 nM, RXRa partner concentration 90 nM)
Assay: PBM binding z-score (relative to random genomic background probes); higher = stronger binding; sequences stand for … in GC…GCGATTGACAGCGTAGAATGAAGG
reported.property: PBM binding z-score

primary.sequence | PBM binding z-score
TCGAGTAGGTCACGGGGGCATTCAGGGATGAAGA | 6.7
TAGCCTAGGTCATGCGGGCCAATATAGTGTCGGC | 4.22

Here's the next entry for you.
Tell me the measured PBM binding z-score of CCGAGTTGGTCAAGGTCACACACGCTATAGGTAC , please.
4.37

---

Tested on: VDR homodimer (NR concentration 270 nM)
Test: PBM binding z-score (relative to random genomic background probes); higher = stronger binding; sequences stand for … in GC…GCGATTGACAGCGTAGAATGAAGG
reported.property: PBM binding z-score

Examples with answers:
primary.sequence | measurement.target | PBM binding z-score
AATACAAGGTCATCGTAGGCCAGAGTACGCACAG | VDR homodimer (NR concentration 270 nM) | 4.03
CGTCCGAGGTCAAGGTCAGTGAAAGAGACTCGAA | VDR homodimer (NR concentration 270 nM) | 4.69
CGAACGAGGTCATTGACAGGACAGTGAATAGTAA | VDR homodimer (NR concentration 270 nM) | 5.66
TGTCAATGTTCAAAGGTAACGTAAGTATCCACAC | VDR homodimer (NR concentration 270 nM) | -0.453
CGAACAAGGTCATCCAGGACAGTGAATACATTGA | VDR homodimer (NR concentration 270 nM) | 4.92

Items follow; give PBM binding z-score for each.
1. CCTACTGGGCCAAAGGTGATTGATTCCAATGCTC
2. AGTCAAAGTGCATCTAGGTAACGTAAGATATGCT

[0.165, 0.36]

Count: 3. Required value per item: PBM binding z-score.
1. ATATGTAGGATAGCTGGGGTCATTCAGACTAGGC
2. AATACAGGGTCATCTTAGGCCAGAGTACGCACAG
3. CCTACTGGGTCAAAGGTCATTGATTCCAATGCTC

5.01
3.76
3.95

---

Tested on: RARb:RXRa (NR concentration 270 nM, RXRa partner concentration 90 nM)
Assay: PBM binding z-score (relative to random genomic background probes); higher = stronger binding; sequences stand for … in GC…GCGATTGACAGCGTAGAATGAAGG
reported.property: PBM binding z-score
Numbers only.

primary.sequence | PBM binding z-score
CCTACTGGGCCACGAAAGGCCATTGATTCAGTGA | 1.18
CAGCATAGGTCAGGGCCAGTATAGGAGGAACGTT | 3.89
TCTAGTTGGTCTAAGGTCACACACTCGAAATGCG | 3.76
GATACGGGGTCAAGGCCAGAGTACGCGTATTGAT | 5.26
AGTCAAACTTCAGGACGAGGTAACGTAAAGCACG | 0.545

For every item in the list below, what is its measured PBM binding z-score?
1. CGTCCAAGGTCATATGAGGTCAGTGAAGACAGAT
2. CCTACTCGGCCAAAAAGGTCATTGATGCCGATAA
3. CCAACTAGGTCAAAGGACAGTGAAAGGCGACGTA
4. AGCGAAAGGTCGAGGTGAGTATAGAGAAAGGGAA
5. ATCGAAAGGTCCAAGGTGAGTATACCCACCCGAA
6. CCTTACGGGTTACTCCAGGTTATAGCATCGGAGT
7. CCTTACGGGTCACGAGGTTGTAGCACGACGAGCG

1: 5.34; 2: 4.07; 3: 4.07; 4: 4.03; 5: 1.49; 6: 1.02; 7: 4.42

---

Tested on: LXRa homodimer (NR concentration 270 nM)
Test: PBM binding z-score (relative to random genomic background probes); higher = stronger binding; sequences stand for … in GC…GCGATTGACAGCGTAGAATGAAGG
Outcome: t for PBM binding z-score of at least 4; f for anything lower.

primary.sequence | class.name
CGTCAAAGGTCATAGGAGGTCAGTGAAGACAGAT | t

Decide: PBM binding z-score of TTGCCTAGGTCATTGGGCCAGTATAGTACGCATC >= 4?
f

Given CGTCCAAGGTCAGCGGGTCAGTGAAAGCGACGTG , state whether its PBM binding z-score is at least 4.
f

Answer whether PBM binding z-score of CAAACGAGGTCAAGGTCAAAGTCGGTTTGTGCCA is greater than or equal to 4.
t

Is the recorded value of PBM binding z-score equal to or greater than 4 for this sequence? CCTCGGAGGTCAACAGGAGGTCAGAGCTGCCAGA
t

// provenance: the supplement of paper PMC6555819
